Tested on: 317291-083-R-J1-PDC complex spheroids, viability;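 further: spheroids exposed to compounds for one week before readout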
testDetails: Anticancer human tumor 317291-083-R-J1-PDC patient-derived soft tissue sarcoma cell line growth inhibition [GQUAD]
statedConditions: curve of first compound; second compound 1 µM
Overview of reported IC50 across a group of compounds:

A selection of reference data follows.
{"compound": "CC1COCCN1c1cc(C2(S(C)(=N)=O)CC2)nc(-c2ccnc3[nH]ccc23)n1 (stereo not given) + Cc1cnc(CNC(=O)c2c(=O)c3ccc(N4CCCN(C)CC4)nc3n3c2sc2ccccc23)cn1", "targetSystem": "317291-083-R-J1-PDC complex spheroids, viability", "IC50": "< 31.6 nM"}
{"compound": "Cc1cccc(N(C)C(=O)C2C(O)CCN2c2nc(C)cc(C(F)(F)F)c2C#N)c1 (stereo not given) + Cc1[nH]c2ccc(F)cc2c1-c1nc2c3cccnc3c3ncccc3c2[nH]1", "targetSystem": "317291-083-R-J1-PDC complex spheroids, viability", "IC50": "> 10000 nM"}
{"compound": "CC(=O)O[C@H]1C(=O)[C@@]2(C)[C@H]([C@H](OC(=O)c3ccccc3)[C@]3(O)C[C@H](OC(=O)[C@H](O)[C@@H](NC(=O)c4ccccc4)c4ccccc4)C(C)=C1C3(C)C)[C@]1(OC(C)=O)CO[C@@H]1C[C@@H]2O + CN(C)c1ccc(Nc2c3ccc(NC(=O)CCN4CCCC4)cc3nc3cc(NC(=O)CCN4CCCC4)ccc23)cc1", "targetSystem": "317291-083-R-J1-PDC complex spheroids, viability", "IC50": "< 31.6 nM"}
{"compound": "COc1ncnc(C2CC2)c1-c1ncc2cnn(Cc3ccc(-c4nc(C(F)(F)F)cn4C(C)C)cc3)c2n1 + CN(C)c1ccc(Nc2c3ccc(NC(=O)CCN4CCCC4)cc3nc3cc(NC(=O)CCN4CCCC4)ccc23)cc1", "targetSystem": "317291-083-R-J1-PDC complex spheroids, viability", "IC50": "< 31.6 nM"}

Qu. Consider the compound shown here: Cc1[nH]c2ccccc2c1CCNCc1ccc(/C=C/C(=O)NO)cc1 + Cc1cnc(CNC(=O)c2c(=O)c3ccc(N4CCCN(C)CC4)nc3n3c2sc2ccccc23)cn1 What is its recorded IC50?
Ans. < 0.999 nM
